Provide the recorded MIC Ea for the entries that follow.
Tested on: Erwinia amylovora PMV6076
Assay: MIC, in vitro growth inhibition
Format: cell-based
Details: TSB, 25°C, 48 h, OD 600 nm; tested at 3.1, 6.2, 12.5, 25, 50 μM; three replicates, experiment repeated twice; MIC = lowest concentration with no growth
Where a SMILES comes first, the peptide text is derived from it. [ ]: non-standard residue; d: D form. The star is where a group is joined. Butyryl = CCCC(=O)*

| MOLECULE | MIC Ea |
| --- | --- |
| CCCC(=O)NCCCC[C@H]1NC(=O)[C@H](CCCCN)NC(=O)[C@H](CCC(N)=O)NC(=O)[C@H](CC(C)C)NC(=O)[C@H](CCCCN)NC(=O)[C@H](CCCCN)NC(=O)[C@H](Cc2ccccc2)NC(=O)[C@H](CCCCN)NC(=O)[C@H](CCCCN)NC(=O)[C@H](CC(C)C)NC1=O [BPC704] (cyclo(FKKLQK[dK](Butyryl)LKK)) | 25 to 50 µM |
| CCCC(=O)NCCCC[C@@H]1NC(=O)[C@H](CCCCN)NC(=O)[C@H](CC(C)C)NC(=O)[C@H](CCCCN)NC(=O)[C@H](CCCCN)NC(=O)[C@H](CCC(N)=O)NC(=O)[C@H](CC(C)C)NC(=O)[C@H](CCCCN)NC(=O)[C@H](CCCCN)NC(=O)[C@H](Cc2ccccc2)NC1=O [BPC500, c(KKLKK(CO-C3H7)FKKLQ)] (cyclo(FKKLQKKLKK(Butyryl))) | 12.5 to 25 µM |

Could you now consider this next molecule?
Requested read-out MIC Ea, target or system Erwinia amylovora PMV6076, entry CCCC(=O)NCCCC[C@H]1NC(=O)[C@H](CCC(N)=O)NC(=O)[C@H](CC(C)C)NC(=O)[C@H](CCCCN)NC(=O)[C@H](CCCCN)NC(=O)[C@H](Cc2ccccc2)NC(=O)[C@H](CCCCN)NC(=O)[C@H](CCCCN)NC(=O)[C@H](CC(C)C)NC(=O)[C@H](CCCCN)NC1=O [BPC706] (cyclo(FKKLQ[dK](Butyryl)KLKK)) 25 to 50 µM
